molecular target: HLA-A*30:02; test: IEDB peptide-MHC binding, purified MHC/competitive/radioactivity; filed as Kd, often an IC50 or EC50 that approximates it; bounds were set here for any values at or beyond the usual limits of such assays; details: source organism: SARS coronavirus Tor2
MEASUREMENT_NAME: log10 Kd (log10 of the value in nM)

[
  {
    "CONSTRUCT_SEQUENCE": "LYNSTFFSTF",
    "log10 Kd": 3.06
  },
  {
    "CONSTRUCT_SEQUENCE": "QWSLFFFVY",
    "log10 Kd": 3.14
  },
  {
    "CONSTRUCT_SEQUENCE": "MEAQFLYLY",
    "log10 Kd": 1.07
  },
  {
    "CONSTRUCT_SEQUENCE": "NYMPYVFTLL",
    "log10 Kd": 3.41
  },
  {
    "CONSTRUCT_SEQUENCE": "DSFKEELDKY",
    "log10 Kd": 2.48
  },
  {
    "CONSTRUCT_SEQUENCE": "GMEAQFLYLY",
    "log10 Kd": 2.17
  },
  {
    "CONSTRUCT_SEQUENCE": "SYSLFDMSKF",
    "log10 Kd": 2.89
  },
  {
    "CONSTRUCT_SEQUENCE": "NIDATSTGNY",
    "log10 Kd": 3.15
  },
  {
    "CONSTRUCT_SEQUENCE": "HISRQRLTKY",
    "log10 Kd": 2.76
  },
  {
    "CONSTRUCT_SEQUENCE": "DYRHYSASF",
    "log10 Kd": 3.64
  }
]

* * *

target: HLA-A*11:01; experiment: IEDB peptide-MHC binding, purified MHC/competitive/fluorescence; bounds were set here for any values at or beyond the usual limits of such assays; conditions: source organism: Vaccinia virus
pIC50: −log10 of the molar value.

[
  {
    "CONSTRUCT_SEQUENCE": "NQVCIDILR",
    "pIC50": "≤ 3.69"
  }
]

* * *

biological target: HLA-A*02:11; experiment: IEDB peptide-MHC binding, purified MHC/direct/fluorescence; filed as Kd, often an IC50 or EC50 that approximates it; bounds were set here for any values at or beyond the usual limits of such assays; conditions: source organism: Salmonella enterica subsp. enterica serovar Typhimurium str. LT2

[
  {
    "CONSTRUCT_SEQUENCE": "FPASHMATY",
    "TARGET_ENTITY": "HLA-A*02:11",
    "Kd": "≥ 20 µM"
  }
]

* * *

target: HLA-B*53:01; assay: IEDB peptide-MHC binding, purified MHC/competitive/radioactivity; filed as Kd, often an IC50 or EC50 that approximates it; bounds were set here for any values at or beyond the usual limits of such assays; conditions: source organism: Mammarenavirus machupoense

[
  {
    "CONSTRUCT_SEQUENCE": "VPINVAEAY",
    "TARGET_ENTITY": "HLA-B*53:01",
    "Kd": "202 nM"
  }
]

* * *

Overview of reported Kd across a group of sequences:
biological target: HLA-A*11:01; test: IEDB peptide-MHC binding, purified MHC/competitive/radioactivity; filed as Kd, often an IC50 or EC50 that approximates it; bounds were set here for any values at or beyond the usual limits of such assays; conditions: source organism: SARS coronavirus Tor2

[
  {
    "CONSTRUCT_SEQUENCE": "LLFADINGK",
    "Kd, nM": 8.81
  },
  {
    "CONSTRUCT_SEQUENCE": "SAGFSLWIYK",
    "Kd, nM": 0.0935
  },
  {
    "CONSTRUCT_SEQUENCE": "TVKPGNFNK",
    "Kd, nM": 33
  },
  {
    "CONSTRUCT_SEQUENCE": "SVKTQFNYFK",
    "Kd, nM": 21.1
  },
  {
    "CONSTRUCT_SEQUENCE": "YMSALNHTK",
    "Kd, nM": 48.4
  },
  {
    "CONSTRUCT_SEQUENCE": "GLLATNNVFR",
    "Kd, nM": 816
  },
  {
    "CONSTRUCT_SEQUENCE": "TSRTLSYYK",
    "Kd, nM": 160
  },
  {
    "CONSTRUCT_SEQUENCE": "VVNARLRAK",
    "Kd, nM": 130
  },
  {
    "CONSTRUCT_SEQUENCE": "AINSVPWSK",
    "Kd, nM": 1.85
  },
  {
    "CONSTRUCT_SEQUENCE": "ALILAYSNK",
    "Kd, nM": 19.6
  },
  {
    "CONSTRUCT_SEQUENCE": "GSFCTQLNR",
    "Kd, nM": 76.1
  }
]

* * *

target: HLA-A*24:03; test: IEDB peptide-MHC binding, purified MHC/competitive/fluorescence; filed as Kd, often an IC50 or EC50 that approximates it; bounds were set here for any values at or beyond the usual limits of such assays; conditions: source organism: Escherichia coli E22
pKd: −log10 of the molar value.

[
  {
    "CONSTRUCT_SEQUENCE": "YQTYVSPGA",
    "pKd": "≤ 4.70"
  }
]

* * *

molecular target: HLA-A*02:12; test: IEDB peptide-MHC binding, purified MHC/direct/fluorescence; filed as Kd, often an IC50 or EC50 that approximates it; bounds were set here for any values at or beyond the usual limits of such assays; details: source organism: Cryptosporidium parvum Iowa II
Overview of reported Kd across a group of sequences:

[
  {
    "CONSTRUCT_SEQUENCE": "GFPFFIMPK",
    "Kd": "≥ 20 µM"
  },
  {
    "CONSTRUCT_SEQUENCE": "MPMSMPIPM",
    "Kd": "≥ 20 µM"
  },
  {
    "CONSTRUCT_SEQUENCE": "LPLESCFGV",
    "Kd": "≥ 20 µM"
  }
]

* * *

Overview of reported log10(Kd) across a group of sequences:
molecular target: HLA-A*26:01; experiment: IEDB peptide-MHC binding, purified MHC/competitive/radioactivity; filed as Kd, often an IC50 or EC50 that approximates it; bounds were set here for any values at or beyond the usual limits of such assays; conditions: source organism: SARS coronavirus Tor2
MEASUREMENT_NAME: log10(Kd) (log10 of the value in µM)

[
  {
    "CONSTRUCT_SEQUENCE": "DSFKEELDKY",
    "MEASUREMENT_NAME": "log10(Kd)",
    "EXPERIMENTAL_VALUE": -0.38
  },
  {
    "CONSTRUCT_SEQUENCE": "GMEAQFLYLY",
    "MEASUREMENT_NAME": "log10(Kd)",
    "EXPERIMENTAL_VALUE": 1.09
  },
  {
    "CONSTRUCT_SEQUENCE": "MEAQFLYLY",
    "MEASUREMENT_NAME": "log10(Kd)",
    "EXPERIMENTAL_VALUE": 0.29
  },
  {
    "CONSTRUCT_SEQUENCE": "DYRHYSASF",
    "MEASUREMENT_NAME": "log10(Kd)",
    "EXPERIMENTAL_VALUE": 0.87
  },
  {
    "CONSTRUCT_SEQUENCE": "YFPREGVFVF",
    "MEASUREMENT_NAME": "log10(Kd)",
    "EXPERIMENTAL_VALUE": 1.24
  },
  {
    "CONSTRUCT_SEQUENCE": "NIDATSTGNY",
    "MEASUREMENT_NAME": "log10(Kd)",
    "EXPERIMENTAL_VALUE": -0.05
  },
  {
    "CONSTRUCT_SEQUENCE": "HISRQRLTKY",
    "MEASUREMENT_NAME": "log10(Kd)",
    "EXPERIMENTAL_VALUE": 0.06
  },
  {
    "CONSTRUCT_SEQUENCE": "QWSLFFFVY",
    "MEASUREMENT_NAME": "log10(Kd)",
    "EXPERIMENTAL_VALUE": 1.25
  },
  {
    "CONSTRUCT_SEQUENCE": "SYSLFDMSKF",
    "MEASUREMENT_NAME": "log10(Kd)",
    "EXPERIMENTAL_VALUE": 0.79
  },
  {
    "CONSTRUCT_SEQUENCE": "LYNSTFFSTF",
    "MEASUREMENT_NAME": "log10(Kd)",
    "EXPERIMENTAL_VALUE": -0.08
  }
]
